system: NCI-H226 lung; assay: NCI-60 one-dose screen, 48 h (100 = growth as untreated, 0 = no growth, -100 = all killed); settings: 10 µM
The panel holds about 83,000 compounds, 20% with a hit somewhere; the sample as a whole holds those more often.
QUANTITY: growth (%)

- COMPOUND: "COC(=O)C1(C)Cc2cc(OC(C)=O)c(OC(C)=O)cc2N1 (stereo not drawn)"
  ASSAY TARGET: "NCI-H226 lung"
  QUANTITY: "growth"
  RESULT UNITS: "%"
  REPORTED MEASUREMENT: 113
- COMPOUND: "COc1ccc(-c2cc(/C=C/C(=O)c3cc(OC)c(OC)c(OC)c3)[nH]n2)cc1OC"
  ASSAY TARGET: "NCI-H226 lung"
  QUANTITY: "growth"
  RESULT UNITS: "%"
  REPORTED MEASUREMENT: 63
- COMPOUND: "COc1cc(C(=O)N2CCN(c3ccccc3OC)CC2)c(N)cc1OCCCN1CCN(c2ccccc2OC)CC1"
  ASSAY TARGET: "NCI-H226 lung"
  QUANTITY: "growth"
  RESULT UNITS: "%"
  REPORTED MEASUREMENT: 84.6
